Entry source: patent US8530667B2

- Test system: Avena fatua (AVEFA)
- Assay Text: Example B pre-emergence herbicidal activity, glasshouse pot test
- Format: in vivo
- Condition Summary: 312 h, Rate 250 g/ha, evaluated after 13 days, read-out: Pre-Emergence Activity AVEFA (100=total damage to plant; 0=no damage to plant)
Binary call on pest or weed control at 250 g/ha: 1.0 from 70% upward, 0.0 beneath that.

Input: Could you tell me if the measured pest or weed control at 250 g/ha of CCc1sc(-c2ccc(Cl)cc2)nc1C1=C(OC(=O)C2CC2)[C@@H]2[C@H](C1=O)[C@H]1CC[C@@H]2O1 (racemic) [Compound P4] reaches 70% or more?
Output: 1.0

Input: Could you tell me if the measured pest or weed control at 250 g/ha of CCc1sc(COc2ccc(Cl)cc2)nc1C1C(=O)[C@@H]2[C@H](C1=O)[C@H]1CC[C@@H]2O1 (some centres unmarked) [Compound T40] reaches 70% or more?
Output: 0.0

Input: Could you tell me if the measured pest or weed control at 250 g/ha of Cc1ccc(-c2nc(C3C(=O)[C@@H]4[C@H](C3=O)[C@H]3CC[C@@H]4O3)c(C)s2)cc1 (some centres unmarked) [Compound T20] reaches 70% or more?
Output: 0.0

Input: Could you tell me if the measured pest or weed control at 250 g/ha of Cc1sc(-c2ccc(Br)cc2F)nc1C1C(=O)[C@@H]2[C@H](C1=O)[C@H]1CC[C@@H]2O1 (some centres unmarked) [Compound T36] reaches 70% or more?
Output: 1.0

###

- Tested on: Setaria faberi (SETFA)
- Assay Text: Example A post-emergence herbicidal activity, glasshouse pot test
- Assay type: in vivo
- Condition Summary: Rate 125 g/ha, evaluated 14 or 15 days later, read-out: Post-Emergence Activity SETFA (100=total damage to plant; 0=no damage to plant)
# key: entry, value: pest or weed control at 125 g/ha
Unit % implied. Number only.

[[record]]
molecule = "CCc1sc(-c2ccc(Cl)cc2)nc1C1C(=O)[C@@H]2[C@H](C1=O)[C@H]1CC[C@@H]2O1 (stereo partly shown) [Compound T23]"
measured_target = "Setaria faberi (SETFA)"
val = 100

[[record]]
molecule = "Cc1sc(-c2ccc(Cl)cc2)cc1C1C(=O)[C@@H]2[C@H](C1=O)[C@H]1CC[C@@H]2O1 (stereo partly shown) [Compound T12]"
measured_target = "Setaria faberi (SETFA)"
val = 70

[[record]]
molecule = "Cc1sc(Br)cc1C1C(=O)[C@@H]2[C@H](C1=O)[C@H]1CC[C@@H]2O1 (stereo partly shown) [Compound T5]"
measured_target = "Setaria faberi (SETFA)"
val = 10


Input: Using the record for Cc1sc(-c2ccc(Cl)nc2)nc1C1C(=O)[C@@H]2[C@H](C1=O)[C@H]1CC[C@@H]2O1 (stereo partly shown) [Compound T30] , report its pest or weed control at 125 g/ha.
Output: 40

Input: Using the record for Cc1csc(C)c1C1C(=O)[C@@H]2[C@H](C1=O)[C@H]1CC[C@@H]2O1 (stereo partly shown) [Compound T10] , report its pest or weed control at 125 g/ha.
Output: 60

Input: Using the record for Cc1sc(-c2ccc(Cl)cc2)nc1C1C(=O)[C@@H]2[C@H](C1=O)[C@@]1(C)CC[C@]2(C)O1 (stereo partly shown) [Compound T26] , report its pest or weed control at 125 g/ha.
Output: 0

Input: Using the record for Cc1nc(-c2cc(C3C(=O)[C@@H]4[C@H](C3=O)[C@H]3CC[C@@H]4O3)c(C)s2)cs1 (stereo partly shown) [Compound T7] , report its pest or weed control at 125 g/ha.
Output: 0

Input: Using the record for Cc1sc(-c2ccc(Br)cc2)nc1C1C(=O)[C@@H]2[C@H](C1=O)[C@H]1CC[C@@H]2O1 (stereo partly shown) [Compound T28] , report its pest or weed control at 125 g/ha.
Output: 80

###

- Tested on: Lolium perenne (LOLPE)
- Assay Text: Example A pre-emergence herbicidal activity, glasshouse pot test
- Type: in vivo
- Condition Summary: Rate 250 g/ha, evaluated 19 or 20 days later, read-out: Pre-Emergence Activity LOLPE (100=total damage to plant; 0=no damage to plant)
- Experimental: Seeds of a variety of test species were sown in standard soil in pots. […] The test plants were then grown in a greenhouse under optimum conditions until, 14 or 15 days later for post-emergence and 19 or 20 days for pre-emergence, the test was evaluated (100=total damage to plant; 0=no damage to plant). […]
# key: entry, value: pest or weed control at 250 g/ha
Unit % implied. Number only.

Study these solved cases before continuing.
[[record]]
molecule = "Cc1sc(-c2ccc(Cl)nc2)nc1C1C(=O)[C@@H]2[C@H](C1=O)[C@H]1CC[C@@H]2O1 (stereo partly drawn)"
quantity_name = "pest or weed control at 250 g/ha"
val = 40

[[record]]
molecule = "Cc1sc(-c2ccc(Cl)cc2)cc1C1=C(OC(=O)C(C)C)[C@@H]2[C@H](C1=O)[C@H]1CC[C@@H]2O1 (racemic) [Compound P2]"
quantity_name = "pest or weed control at 250 g/ha"
val = 50


Could you now consider this next molecule?
Input: Using the record for Cc1sc(-c2ccc(Cl)cc2)nc1C1C(=O)[C@@H]2[C@H](C1=O)[C@@]1(C)CC[C@]2(C)O1 (stereo partly drawn) , report its pest or weed control at 250 g/ha.
Output: 70

###

- Test system: Digitaria sanguinalis (DIGSA)
- Assay Text: Example A pre-emergence herbicidal activity, glasshouse pot test
- Format: in vivo
- Condition Summary: Rate 250 g/ha, evaluated 19 or 20 days later, read-out: Pre-Emergence Activity DIGSA (100=total damage to plant; 0=no damage to plant)
Quantity Name: pest or weed control at 250 g/ha (%)
Unit % implied. Number only.

Study these solved cases before continuing.
[[record]]
compound = "Cc1sc(-c2ccc(Br)cc2)nc1C1C(=O)[C@@H]2[C@H](C1=O)[C@H]1CC[C@@H]2O1 (stereo partly drawn)"
quantity_name = "pest or weed control at 250 g/ha"
val = 100

[[record]]
compound = "CCc1sc(-c2ccc(Cl)cc2)nc1C1C(=O)[C@@H]2[C@H](C1=O)[C@@]1(C)CC[C@]2(C)O1 (stereo partly drawn)"
quantity_name = "pest or weed control at 250 g/ha"
val = 100


Could you now consider this next compound?
Input: Using the record for Cc1sc(-c2ccc(Cl)cc2)nc1C1C(=O)[C@H]2[C@@H]3CC[C@@](C)(O3)[C@H]2C1=O (mixture of isomers) , report its pest or weed control at 250 g/ha.
Output: 100

###

- Tested on: Alopecurus myosuroides (ALOMY)
- Assay Text: Example A pre-emergence herbicidal activity, glasshouse pot test
- Format: in vivo
- Condition Summary: Rate 250 g/ha, evaluated 19 or 20 days later, read-out: Pre-Emergence Activity ALOMY (100=total damage to plant; 0=no damage to plant)
Quantity Name: pest or weed control at 250 g/ha (%)
Unit % implied. Number only.

Study these solved cases before continuing.
[[record]]
compound = "Cc1sc(-c2ccc(Cl)cc2)nc1C1C(=O)[C@H]2[C@@H]3CC[C@@](C)(O3)[C@H]2C1=O (mixture of isomers)"
display_unit = "%"
val = 90

[[record]]
compound = "CCc1sc(-c2ccc(Cl)cc2)nc1C1C(=O)[C@@H]2[C@H](C1=O)[C@@]1(C)CC[C@]2(C)O1 (stereo partly shown)"
display_unit = "%"
val = 70

[[record]]
compound = "Cc1sc(-c2ccc(Cl)cc2)cc1C1=C(OC(=O)C(C)(C)C)[C@@H]2[C@H](C1=O)[C@H]1CC[C@@H]2O1 (racemic) [Compound P1]"
display_unit = "%"
val = 30

[[record]]
compound = "COc1ccc(-c2nc(C3C(=O)[C@@H]4[C@H](C3=O)[C@H]3CC[C@@H]4O3)c(C)s2)cc1 (stereo partly shown)"
display_unit = "%"
val = 90

[[record]]
compound = "Cc1csc(C)c1C1C(=O)[C@@H]2[C@H](C1=O)[C@H]1CC[C@@H]2O1 (stereo partly shown)"
display_unit = "%"
val = 10

[[record]]
compound = "Cc1sc(-c2ccc(Cl)cc2)nc1C1C(=O)[C@@H]2[C@H](C1=O)[C@@]1(C)CC[C@]2(C)O1 (stereo partly shown)"
display_unit = "%"
val = 90

[[record]]
compound = "Cc1sc(-c2ccc(Cl)nc2)nc1C1C(=O)[C@@H]2[C@H](C1=O)[C@H]1CC[C@@H]2O1 (stereo partly shown)"
display_unit = "%"
val = 10

[[record]]
compound = "CCc1c(Br)sc(C)c1C1C(=O)[C@@H]2[C@H](C1=O)[C@H]1CC[C@@H]2O1 (stereo partly shown)"
display_unit = "%"
val = 90


Input: Using the record for Cc1sc(-c2ccc(Cl)cc2)nc1C1C(=O)[C@@H]2[C@H](C1=O)[C@H]1CC[C@@H]2O1 (stereo partly shown) , report its pest or weed control at 250 g/ha.
Output: 100

Input: Using the record for Cc1sc(-c2ccc(Br)cc2)nc1C1C(=O)[C@@H]2[C@H](C1=O)[C@H]1CC[C@@H]2O1 (stereo partly shown) , report its pest or weed control at 250 g/ha.
Output: 100

Input: Using the record for Cc1sc(-c2ccc(Cl)cc2)cc1C1=C(OC(=O)C(C)C)[C@@H]2[C@H](C1=O)[C@H]1CC[C@@H]2O1 (racemic) [Compound P2] , report its pest or weed control at 250 g/ha.
Output: 30

Input: Using the record for CCc1csc(CC)c1C1C(=O)[C@@H]2[C@H](C1=O)[C@H]1CC[C@@H]2O1 (stereo partly shown) , report its pest or weed control at 250 g/ha.
Output: 70

Input: Using the record for CCc1sc(-c2ccc(Cl)cc2)nc1C1C(=O)[C@H]2[C@@H]3CC[C@@](C)(O3)[C@H]2C1=O (mixture of isomers) , report its pest or weed control at 250 g/ha.
Output: 90
